- experimental_system: Gal-7–Gal-7 (Homo sapiens)
- Construct: two Gal-7 CRDs directly fused in one polypeptide (covalent homodimer, no added residues); recombinant from E. coli
- Sequence (P47929 whole entry, the tested form may be a part): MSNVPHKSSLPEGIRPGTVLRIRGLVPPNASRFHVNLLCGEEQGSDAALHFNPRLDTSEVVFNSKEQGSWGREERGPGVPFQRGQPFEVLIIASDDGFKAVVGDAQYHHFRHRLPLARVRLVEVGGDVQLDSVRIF
- assay_overview: isothermal titration calorimetry
- condition: 25 °C, pH 7.2, 20 mM phosphate, 10 mM NaCl, 10 mM beta-mercaptoethanol; one-set-of-sites, n fitted; LacNAc 10 mM
assay_metric: Kd (µM)
Give your result in µM as a bare value.

Qu. GET /values?readout=Kd&item= CC(=O)N[C@H]1C(O)O[C@H](CO)[C@@H](O[C@@H]2O[C@H](CO)[C@H](O)[C@H](O)[C@H]2O)[C@@H]1O (stereo partly shown) [LacNAc]
Ans. 261

====

- experimental_system: Gal-1–8S–Gal-7
- Construct: Gal-1 CRD N-terminal, 33-amino-acid linker of Gal-8S, Gal-7 CRD C-terminal; one polypeptide; recombinant from E. coli
- assay_overview: isothermal titration calorimetry
- condition: 25 °C, pH 7.2, 20 mM phosphate, 10 mM NaCl, 10 mM beta-mercaptoethanol; one-set-of-sites, n fitted
assay_metric: pKd
Remember the convention: pKd equals -log10 of concentration in molar.

Qu. GET /values?readout=pKd&item= CC(=O)N[C@H]1C(O)O[C@H](CO)[C@@H](O[C@@H]2O[C@H](CO)[C@H](O)[C@H](O)[C@H]2O)[C@@H]1O (stereo partly shown) [LacNAc]
Ans. 3.79

====

- experimental_system: Gal-7–8S–Gal-3
- Construct: one polypeptide; recombinant from E. coli
- assay_overview: isothermal titration calorimetry
- condition: 25 °C, pH 7.2, 20 mM phosphate, 10 mM NaCl, 10 mM beta-mercaptoethanol; one-set-of-sites, n fitted; LacNAc 2 mM
assay_metric: pKd
Remember the convention: pKd equals -log10 of concentration in molar.

Qu. GET /values?readout=pKd&item= CC(=O)N[C@H]1C(O)O[C@H](CO)[C@@H](O[C@@H]2O[C@H](CO)[C@H](O)[C@H](O)[C@H]2O)[C@@H]1O (stereo partly shown)
Ans. 4.49

====

- experimental_system: Gal-7–Gal-3
- Construct: one polypeptide; recombinant from E. coli
- assay_overview: isothermal titration calorimetry
- condition: 25 °C, pH 7.2, 20 mM phosphate, 10 mM NaCl, 10 mM beta-mercaptoethanol; one-set-of-sites, n fitted
assay_metric: Kd (µM)
Give your result in µM as a bare value.

Qu. Notebook entry, Gal-7–Gal-3 assay: Kd of CC(=O)N[C@H]1C(O)O[C@H](CO)[C@@H](O[C@@H]2O[C@H](CO)[C@H](O)[C@H](O)[C@H]2O)[C@@H]1O (stereo partly shown) [LacNAc] = ?
Ans. 86.5

====

- experimental_system: Gal-1–Gal-7
- Construct: direct fusion, Gal-1 CRD N-terminal, Gal-7 CRD C-terminal; one polypeptide; recombinant from E. coli
- assay_overview: isothermal titration calorimetry
- condition: 25 °C, pH 7.2, 20 mM phosphate, 10 mM NaCl, 10 mM beta-mercaptoethanol; one-set-of-sites, n fitted
assay_metric: Kd (µM)
Give your result in µM as a bare value.

Qu. GET /values?readout=Kd&item= CC(=O)N[C@H]1C(O)O[C@H](CO)[C@@H](O[C@@H]2O[C@H](CO)[C@H](O)[C@H](O)[C@H]2O)[C@@H]1O (stereo partly shown) [LacNAc]
Ans. 175
